- System: DeltatarO mutant
- PROCEDURE_DETAILS: S. aureus survival, RN4220 and DeltatarO strains – OD600, teichoic acid synthesis inhibitors, primary screen (AID 463173)
- CONDITION_PARAMETERS: S. aureus RN4220 wild type/DeltatarO growth, OD600, 18 h, stronger effect = lower value, screened at 18.75 µg/mL (by protocol)
Among all 52,000 compounds or so, about 4,300 (8.3%) were called active. Shown is part of a subset that was picked to be rich in actives.
REPORTED_METRIC: survival (%)

1) Cc1ccc(NC(=O)/C=C/c2ccccc2Cl)cc1Cl
67
2) CCCc1oc2ccc(NS(=O)(=O)c3ccc(OCC)cc3)cc2c1C(=O)OCC
65
3) COc1ccc(NC(=O)c2oc3ccccc3c2NC(=O)c2cc3ccccc3o2)cc1
89
4) CCc1ccc2occ(CC(=O)Nc3c(C(=O)c4ccccc4)oc4ccccc34)c2c1
95
5) COCc1oc2ccc(NS(=O)(=O)c3ccc(C)cc3)cc2c1C(=O)OC
60
6) O=C(Nc1c(C(=O)Nc2ccc(F)cc2)oc2ccccc12)c1cc2ccccc2o1
47
7) CCCCc1ccc(-n2nc3ccc(NC(=O)c4cc5ccccc5o4)cc3n2)cc1
72
8) CCCCOC(=O)c1ccc(NC(=O)c2cc(=O)c3ccccc3o2)cc1
57
9) Cc1ccc(NC(=O)c2oc3ccccc3c2NC(=O)c2cc3ccccc3o2)cc1
94
10) CCCCOC(=O)c1cccc(NC(=O)/C=C/c2ccccc2Cl)c1
14
